Target: UniProt P11229
Sequence (P11229 whole entry): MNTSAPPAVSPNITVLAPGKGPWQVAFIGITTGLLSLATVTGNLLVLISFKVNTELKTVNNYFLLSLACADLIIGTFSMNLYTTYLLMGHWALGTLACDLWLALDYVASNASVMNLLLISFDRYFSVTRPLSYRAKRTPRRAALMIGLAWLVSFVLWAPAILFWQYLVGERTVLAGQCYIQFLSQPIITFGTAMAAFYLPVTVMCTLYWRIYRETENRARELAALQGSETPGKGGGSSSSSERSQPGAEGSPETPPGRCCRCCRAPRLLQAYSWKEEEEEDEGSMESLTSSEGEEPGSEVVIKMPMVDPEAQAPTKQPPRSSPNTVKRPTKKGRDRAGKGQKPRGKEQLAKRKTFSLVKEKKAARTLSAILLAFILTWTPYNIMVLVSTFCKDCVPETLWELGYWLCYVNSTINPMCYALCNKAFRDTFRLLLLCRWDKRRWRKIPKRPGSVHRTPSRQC
Test: Alphascreen Surefire phospho-ERK1/2 functional assay, M1
Type: cell-based
Details: CHO cells stably expressing human M1, read-out: pEC50 M1 (converted)
Value type: log10 of EC50 (log10 of the value in nM)
Please interpret these as log10 of EC50 where EC50 is in nM.

# Compound, Value type, Reported value
records = [
    ("CCOC(=O)N1[C@@H]2CC[C@H]1CC(N1CCC3(CC1)OC(=O)NC3Cc1ccccn1)C2 (mixture of isomers)", "log10 of EC50", 2.70),
    ("CCOC(=O)N1CC2CCC1CC2N1CCC2(CC1)CNC(=O)O2 (single isomer, unassigned) [Example 3-2 Isomer 2]", "log10 of EC50", 2.00),
    ("C#CCOC(=O)N1C2CCCC1CC(N1CCC3(CC1)CNC(=O)C3)C2 (single isomer, unassigned) [Example 5-2 Isomer 1]", "log10 of EC50", 2.00),
    ("CCOC(=O)N1C2CCC1CC(N1CCC3(CC1)OC(=O)NC3C)C2 (single isomer, unassigned) [Example 2-15 Isomer 1]", "log10 of EC50", 2.00),
    ("CCOC(=O)N1C2CCC1CC(N1CCC3(CC1)CC(=O)NC3CC)C2 (single isomer, unassigned) [Example 2-8 Isomer 2]", "log10 of EC50", 2.00),
]

[in] Return log10 of EC50 for the following compound: CCOC(=O)N1C2CCC1CC(N1CCC3(CC1)OC(=O)NC3CC)C2 (single isomer, unassigned) [Example 2-16 Isomer 1]
[out] 1.70

[in] Return log10 of EC50 for the following compound: CCOC(=O)N1C2CCC1CC(N1CCC3(CC1)OC(=O)NC3C(C)C)C2 (single isomer, unassigned) [Example 2-17 Isomer 2]
[out] 2.30

[in] Return log10 of EC50 for the following compound: CCOC(=O)N1CC2CC(N3CCC4(CC3)CNC(=O)C4)CC1C2 (single isomer, unassigned) [Example 6-2 Isomer 2]
[out] 0.30

[in] Return log10 of EC50 for the following compound: O=C1CC2(CCN(C3CC4CCC(C3)N4C(=O)OCCF)CC2)CN1 (single isomer, unassigned) [Example 2-3 Isomer 2]
[out] 1.90

[in] Return log10 of EC50 for the following compound: CCOC(=O)N1C2CCC1C(F)C(N1CCC3(CC1)CNC(=O)C3)C2 (single isomer, unassigned) [Example 2-11 Isomer 2]
[out] 2.40

====

Biological target: human muscarinic M3 receptor (Homo sapiens, UniProt P20309)
Construct: expressed in transfected cells
Sequence (P20309 whole entry): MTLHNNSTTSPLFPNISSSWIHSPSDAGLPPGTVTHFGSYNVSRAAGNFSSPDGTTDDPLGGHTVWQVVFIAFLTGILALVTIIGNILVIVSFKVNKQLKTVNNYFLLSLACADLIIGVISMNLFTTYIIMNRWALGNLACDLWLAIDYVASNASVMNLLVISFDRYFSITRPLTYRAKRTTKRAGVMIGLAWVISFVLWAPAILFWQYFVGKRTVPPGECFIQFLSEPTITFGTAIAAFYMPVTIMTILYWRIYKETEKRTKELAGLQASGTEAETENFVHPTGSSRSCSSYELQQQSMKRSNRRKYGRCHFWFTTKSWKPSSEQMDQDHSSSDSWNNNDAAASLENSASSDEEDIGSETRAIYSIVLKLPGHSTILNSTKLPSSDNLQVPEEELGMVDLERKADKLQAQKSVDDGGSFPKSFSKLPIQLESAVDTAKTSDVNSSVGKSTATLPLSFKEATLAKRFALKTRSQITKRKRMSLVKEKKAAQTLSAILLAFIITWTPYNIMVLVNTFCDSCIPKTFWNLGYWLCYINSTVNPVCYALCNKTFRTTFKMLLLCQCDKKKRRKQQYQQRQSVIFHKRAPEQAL
Test: Alphascreen Surefire phospho-ERK1/2 functional assay, M3
Format: cell-based
Conditions: CHO, read-out: % Emax cf. ACh, M3, CHO cells stably expressing human M3, relative to ACh
Value type: Emax
Give the figure together with its unit, number first.

# Compound, Emax
data = [
    ("CCOC(=O)N1C2CCC1C(F)C(N1CCC3(CC1)CNC(=O)C3)C2 (single isomer, unassigned) [Example 2-11 Isomer 2]", "22%"),
    ("CCOC(=O)N1C2CC[C@@H]1C[C@H](N1CCC3(CC1)CC(=O)N(O)C3)C2", "4%"),
    ("CCOC(=O)N1C2CCC1CC(N1CCC3(CC1)CC(=O)N(CC)C3)C2 (single isomer, unassigned) [Example 2-13 Isomer 2]", "57%"),
    ("CCOC(=O)N1C2CCCC1CC(N1CCC3(CC1)CNC(=O)O3)C2 (single isomer, unassigned) [Example 5-4 Isomer 2]", "0%"),
]

# evaluate next
[in] Return Emax for the following compound: CCOC(=O)N1C2CCC1CC(N1CCC3(CC1)OC(=O)NC3CC)C2 (single isomer, unassigned) [Example 2-16 Isomer 1]
[out] 9%
